Numbers sourced from paper PMC6155021.

Could you please report measured Slope for the items listed next?
target_system: KCNQ2/3 channels (Homo sapiens, UniProt O43525+O43526)
assay_notes: Two-electrode voltage-clamp of KCNQ2/3 channels expressed in Xenopus laevis oocytes
Format: cell-based
experimental_setup: KCNQ2/3; 10 µM
Source text: cRNA transcripts encoding human KCNA1, KCNQ1, KCNQ2, KCNQ3, KCNQ4, or KCNQ5 were generated by in vitro transcription using the T7 polymerase message machine kit (Thermo Fisher Scientific), after vector linearization, from cDNA sub-cloned into plasmids incorporating X. laevis β-globin 5′ and 3′ UTRs flanking the coding region to enhance translation and cRNA stability. cRNA was quantified by spectrophotometry. […]

For KCNQ2/3 channels (Homo sapiens, UniProt O43525+O43526), provide Slope of CCCCCCCCCCCCCCCC(=O)O [Palmitic Acid, palmitic acid] please.
6.8 ± 0.9 mV

For KCNQ2/3 channels (Homo sapiens, UniProt O43525+O43526), provide Slope of CCOC(=O)Nc1ccc(NCc2ccc(F)cc2)cc1N [Retigabine, retigabine, reference compound] please.
6.7 ± 1.1 mV

For KCNQ2/3 channels (Homo sapiens, UniProt O43525+O43526), provide Slope of Oc1ccccc1S [2-Mercaptophenol, 2-mercaptophenol] please.
7.4 ± 1.1 mV

For KCNQ2/3 channels (Homo sapiens, UniProt O43525+O43526), provide Slope of CC(=O)c1c(O)c(C)c(O)c(Cc2c(O)c3c(c(C(=O)/C=C/c4ccccc4)c2O)OC(C)(C)C=C3)c1O [MTX, mallotoxin] please.
6.8 ± 1.3 mV

For KCNQ2/3 channels (Homo sapiens, UniProt O43525+O43526), provide Slope of O=C(O)/C=C/CC(=O)O [Glutaconic Acid, glutaconic acid] please.
5.4 ± 2.3 mV

For KCNQ2/3 channels (Homo sapiens, UniProt O43525+O43526), provide Slope of CCCCCCCC/C=C\CCCCCCCC(N)=O [Oleamide, oleamide] please.
7.0 ± 0.8 mV
